biological target: Alpha-2C adrenergic receptor (Homo sapiens) (UniProt P18825); assay: compounds altering alpha2C-coupled GIRK flux – cell-based, HEK293 alpha2C/GIRK1/2, thallium flux, primary screen (AID 624); settings: thallium flux BTC fluorescence, at 10 µM, actives lie on both sides;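 note: slope of fluorescence ratio to pre-addition baseline per second over 15 to 24 s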
Sequence (P18825 whole entry, looked up): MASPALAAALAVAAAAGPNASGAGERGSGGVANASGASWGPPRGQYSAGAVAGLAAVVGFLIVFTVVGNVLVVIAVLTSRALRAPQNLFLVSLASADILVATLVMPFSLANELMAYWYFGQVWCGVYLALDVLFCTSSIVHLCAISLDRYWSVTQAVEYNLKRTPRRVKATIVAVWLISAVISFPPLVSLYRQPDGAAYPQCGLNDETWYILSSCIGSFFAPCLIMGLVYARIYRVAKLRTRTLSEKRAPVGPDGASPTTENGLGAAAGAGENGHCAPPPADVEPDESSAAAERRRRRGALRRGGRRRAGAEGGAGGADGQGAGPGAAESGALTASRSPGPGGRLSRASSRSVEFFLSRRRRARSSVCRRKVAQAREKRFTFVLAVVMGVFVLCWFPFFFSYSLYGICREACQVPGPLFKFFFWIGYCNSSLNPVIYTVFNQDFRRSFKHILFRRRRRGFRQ
Catalogue of slope readings, one per entry.
measured_metric: slope

> print(dat)
                                    molecule                               test.system  measured.metric  test.value
 1      O=C(Cn1cc2c(n1)CCCCC2)N1CCc2ccccc2C1  Alpha-2C adrenergic receptor (Homo sapiens) (UniProt P18825)            slope      0.0057
 2  COc1cc2c(cc1OC)C(c1ccc(C)o1)CC(=O)N2 (stereo unspecified)  Alpha-2C adrenergic receptor (Homo sapiens) (UniProt P18825)            slope     0.00589
 3  COc1ccc(N2CCN(c3ccc(NC(=O)C4CCCCC4)cc3C#N)CC2)cc1  Alpha-2C adrenergic receptor (Homo sapiens) (UniProt P18825)            slope     0.00529
 4      O=C(O)CCc1ccc(-c2ccc(F)cc2)n1CC(=O)O  Alpha-2C adrenergic receptor (Homo sapiens) (UniProt P18825)            slope     0.00527
 5           c1ccc(Cc2ccc(OCCn3cncn3)cc2)cc1  Alpha-2C adrenergic receptor (Homo sapiens) (UniProt P18825)            slope     0.00592
 6  O=C1CC(C(=O)Nc2ccc(Br)cc2)C2(CCCC2)O1 (stereo unspecified)  Alpha-2C adrenergic receptor (Homo sapiens) (UniProt P18825)            slope     0.00668
 7  CC(=O)N1CCN(S(=O)(=O)c2cccc(C(=O)Nc3ccc4c(c3)CCC4)c2)CC1  Alpha-2C adrenergic receptor (Homo sapiens) (UniProt P18825)            slope     0.00306
 8  CCOC(=O)c1[nH]c(CSc2nnc(-c3ccncc3)n2CCOC)c(C(=O)OCC)c1C  Alpha-2C adrenergic receptor (Homo sapiens) (UniProt P18825)            slope     0.00635
 9  Cc1ccccc1N1OC2C(=O)N(c3ccc(F)cc3)C(=O)C2C1c1ccccn1 (stereo unspecified)  Alpha-2C adrenergic receptor (Homo sapiens) (UniProt P18825)            slope     0.00636
10  CCOC(=O)N1CCC(Nc2ncnc3c2cnn3-c2ccc(C)cc2C)CC1  Alpha-2C adrenergic receptor (Homo sapiens) (UniProt P18825)            slope     0.00533
11  O=C(CN1C(=O)CC(c2ccco2)Sc2ccccc21)Nc1ccccc1F (stereo unspecified)  Alpha-2C adrenergic receptor (Homo sapiens) (UniProt P18825)            slope     0.00681

====

biological target: Alpha-2C adrenergic receptor (Homo sapiens) (UniProt P18825); assay: compounds altering alpha2C-coupled GIRK flux – cell-based, HEK293 alpha2C/GIRK1/2, thallium flux, primary screen (AID 624); conditions: thallium flux BTC fluorescence, at 10 µM, actives lie on both sides;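 note: slope of fluorescence ratio to pre-addition baseline per second over 15 to 24 s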
Mark met for reported slope of 0.006 or greater; mark not met for anything smaller.

> print(dat)
                              record.smiles  class.name
1  O=C(CCn1c(=O)oc2ccccc21)N1CCN(c2ccccc2Cl)CC1     not met
2                       COc1ccc(C(N)=O)cc1N     not met
3         COc1ccc2nc(SCC(=O)NC(C)C)[nH]c2c1         met
4  COc1ccc(OC)c(NC(=O)c2nnn(Cc3ccc(Br)cc3F)c2N)c1     not met
5            CC(=O)c1n[nH]nc1NC(=O)c1ccccc1         met
6  COc1ccccc1N1CCN(c2cc(=O)n(Cc3ccc(F)cc3)c(=O)[nH]2)CC1         met
